# Assay Text: Partition coefficient (logP)
# Assay type: physicochemical
# Measurement Conditions: octanol/water

{"columns": ["Smiles Entry", "logP"],
 "data": [
  ["CC(C)=CCC/C(C)=C/C/C=C\\C=C\\[C@@H](O)CCO", 3.7]
]}

###

Reported logP values follow for various compounds
# Assay Text: Partition coefficient (logP)
# Format: physicochemical
# Measurement Conditions: octanol/water; read-out: logP

{"columns": ["Smiles Entry", "logP"],
 "data": [
  ["[N-]=[N+]=NCC/C=C/C=C/[C@@H](O)CCO", 6.1],
  ["CCCC/C=C\\C=C\\[C@@H](O)CCO", 2.82],
  ["CCCCCCCC/C=C\\C=C\\[C@@H](O)CCO", 4.41]
]}
